pKi: −log10 of the molar value.
Compiled from multiple publications: pKi readings for 5-hydroxytryptamine receptor 6 (Homo sapiens, UniProt P50406).

{"Structure Notation": "C[C@H]1CN(Cc2ccc3[nH]nc(S(=O)(=O)c4cccc5ccccc45)c3c2)CCN1", "pKi": "7.60 to 7.96"}
{"Structure Notation": "Cc1ccc(S(=O)(=O)c2n[nH]c3ccc(OC4CCNCC4)cc23)c2ccccc12", "pKi": "8.00 to 11.00"}
{"Structure Notation": "CCN(CC)CCCOc1ccc2[nH]nc(S(=O)(=O)c3cccc4ccccc34)c2c1", "pKi": "8.00 to 11.00"}
{"Structure Notation": "O=S(=O)(c1cccc2ccccc12)c1n[nH]c2ccc(OCCN3CCOCC3)cc12", "pKi": "7.60 to 7.96"}
{"Structure Notation": "CCCCNCCOc1ccc2[nH]nc(S(=O)(=O)c3ccccc3)c2c1", "pKi": "7.46 to 7.59"}
{"Structure Notation": "CCCN1CC(c2ccc(NS(=O)(=O)c3cc(C(F)(F)F)cc(C(F)(F)F)c3)cc2)C1", "pKi": "6.82 to 7.30"}
